Would you mind telling me the reported EC50 of each entry?
# targetEntity: human GcgR (Homo sapiens)
# Sequence (P47871 26-477): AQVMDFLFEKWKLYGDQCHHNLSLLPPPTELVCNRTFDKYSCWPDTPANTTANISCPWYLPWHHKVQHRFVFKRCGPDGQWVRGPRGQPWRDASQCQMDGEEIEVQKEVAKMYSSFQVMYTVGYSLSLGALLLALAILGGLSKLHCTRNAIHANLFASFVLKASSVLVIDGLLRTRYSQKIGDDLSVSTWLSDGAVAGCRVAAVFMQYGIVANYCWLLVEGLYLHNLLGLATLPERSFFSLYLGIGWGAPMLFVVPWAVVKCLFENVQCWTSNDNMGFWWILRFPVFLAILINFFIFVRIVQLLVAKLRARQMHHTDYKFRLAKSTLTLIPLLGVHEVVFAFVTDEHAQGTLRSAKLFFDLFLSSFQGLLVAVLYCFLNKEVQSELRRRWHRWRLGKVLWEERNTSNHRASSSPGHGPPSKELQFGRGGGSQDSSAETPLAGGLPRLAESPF
# testSummary: Functional cAMP activity in the presence of 1% HSA
# Assay type: cell-based
# reportedConditions: read-out: cAMP Rel EC50, hGcgR
Starred links: 1 amine or outer side, 2 acyl side, 3 side chain; linkers in the order of their positions; H or OH if unused. Non-standard residues stand in square brackets, D forms with d. Groups on a side chain read outwards from the residue. *: point of attachment. C18 diacid = O=C(O)CCCCCCCCCCCCCCCCC(=O)*; αMePhe(2-F) = C[C@](N)(Cc1ccccc1F)C(=O)O; γGlu = O=C(O)[C@H](CCC(=O)[*:2])N[*:1]; αMe4Pal = C[C@](N)(Cc1ccncc1)C(=O)O; αMeY = C[C@](N)(Cc1ccc(O)cc1)C(=O)O; 4Pal = N[C@@H](Cc1ccncc1)C(=O)O; αMeL = CC(C)C[C@](C)(N)C(=O)O; αMeS = C[C@](N)(CO)C(=O)O; Orn = NCCC[C@H](N)C(=O)O; AEEA = NCCOCCOCC(=O)O; Aib = CC(C)(N)C(=O)O
Answers are plain numbers, in nM.

Study these solved cases before continuing.
{"substance": "H-Y[Aib]QGT[αMePhe(2-F)]TSDY[αMeS]I[αMeL]LD[Orn]K([AEEA-γGlu-C18 diacid])AQ[Aib][Orn]FI[dE][αMeY]LEEGGPSSGEPPPEEG-NH2 [Example 403]", "targetEntity": "human GcgR (Homo sapiens)", "EC50 [nM]": 527}
{"substance": "H-Y[Aib]QGT[αMePhe(2-F)]TSD[4Pal][αMeS]I[αMeL]LD[Orn]K([AEEA-γGlu-C18 diacid])AQ[αMe4Pal]EFI[dE][αMeY]LIEGGPPS[Aib][Orn]PPPSGGGE-NH2 [Example 1199]", "targetEntity": "human GcgR (Homo sapiens)", "EC50 [nM]": 352}

Let us move to another entry and its EC50.
Q. API: value(readout= EC50, system= human GcgR (Homo sapiens), query= H-Y[Aib]QGTFTSD[4Pal]SQ[αMeL]LDKK([γGlu-γGlu-γGlu-C18 diacid])AQ[αMe4Pal]AFIEYLIE[Aib]GPSSGAPPPSGS-NH2 [Example 859] )
A. 2250
